Recorded z-score of subpopulation abundance by entry
tested on: Saccharomyces cerevisiae BY4741 SeMeCo community; experiment: z-score of subpopulation abundance vs DMSO median, subpopulation auxotrophic for M; higher = larger share of this subpopulation than in DMSO controls; conditions: 10 µM; 24 h; SM minimal medium; subpopulation (auxotrophy): M
Counter-ions that a name gives are not always drawn.
MEASUREMENT_KIND: z-score of subpopulation abundance

1. Oc1c(Cl)cc(Cl)c(Cl)c1Cc1c(O)c(Cl)cc(Cl)c1Cl : 0.14
2. CO[C@@H]1[C@@H](OC(N)=O)[C@@H](O)[C@H](Oc2ccc3c(O)c(NC(=O)c4ccc(O)c(CC=C(C)C)c4)c(=O)oc3c2C)OC1(C)C [Novobiocin Sodium] : -0.26
3. CC(=O)[C@H]1CC[C@H]2[C@@H]3CC=C4C[C@@H](O)CC[C@]4(C)[C@H]3CC[C@]12C : -0.05
4. COc1cccc(-c2c(C)n(Cc3c(F)cccc3C(F)(F)F)c(=O)n(C[C@H](NCCCC(=O)O)c3ccccc3)c2=O)c1F [Elagolix Sodium] : -0.72
5. C[C@]12CC[C@@H]3c4ccc(O)cc4CC[C@H]3[C@@H]1CCC2=O : -0.44
6. C[C@H]1c2cccc(O)c2C(O)=C2C(=O)[C@]3(O)C(O)=C(C(N)=O)C(=O)[C@@H](N(C)C)[C@@H]3[C@@H](O)[C@@H]21 : 0.04
7. OCCN1CCN(CC/C=C2/c3ccccc3Sc3ccc(C(F)(F)F)cc32)CC1 [Flupenthixol dihydrochloride] : -0.29
8. CCCCOC(=O)c1ccc(O)cc1 : -0.57
9. C/C=C1\[C@H]2C=C(C)C[C@]1(N)c1ccc(=O)[nH]c1C2 [(-)-Huperzine A (HupA)] : 1.03
10. COc1c(N2C[C@@H]3CCCN[C@@H]3C2)c(F)cc2c(=O)c(C(=O)O)cn(C3CC3)c12 [Moxifloxacin HCl] : 0.89
11. CC[C@H]1OC(=O)C[C@@H](O)[C@H](C)[C@@H](O[C@@H]2O[C@H](C)[C@@H](O)[C@H](N(C)C)[C@H]2O)[C@@H](CCN2C[C@H](C)C[C@H](C)C2)C[C@@H](C)C(=O)/C=C/C(C)=C/[C@@H]1CO[C@@H]1O[C@H](C)[C@@H](O)[C@@H](OC)[C@H]1OC [Tilmicosin] : -0.16
12. O=C1c2cccc3c2[C@H](CCC3)CN1[C@@H]1CN2CCC1CC2 [Palonosetron HCl] : -0.37
13. C[C@H]1COc2c(N3CCN(C)CC3)c(F)cc3c(=O)c(C(=O)O)cn1c23 : 0
14. CC1=C(C(=O)O)N2C(=O)[C@@H](NC(=O)[C@H](N)C3=CCC=CC3)[C@H]2SC1 [Cephradine monohydrate] : -0.02
